B1: TRAF3IP2 (parent)
chain: PRPPSNPPARGTLKTSNLPEELRK

Variants of: B1
Test: protein stability index of a GFP-peptide fusion (GPS, HEK-293T) (PSI 1-6); higher = more stable;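 note: lentivirally expressed fusions sorted by FACS into six bins by GFP to DsRed ratio, PSI derived from sequencing read proportions per bin multiplied by bin number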
Conditions: c terminus: a fixed tail appended
This listing pairs variants with measured protein stability index.

Reference set, count: 3
{"mutation string": "K14N", "attribute measured": "protein stability index", "value": 4.97}
{"mutation string": "P3R", "attribute measured": "protein stability index", "value": 4.54}
{"mutation string": "S16R", "attribute measured": "protein stability index", "value": 4.79}

Task: What value of protein stability index has been reported for the following variant? `P19A`
Output: 4.48

Task: What value of protein stability index has been reported for the following variant? `P3V`
Output: 4.79

Task: What value of protein stability index has been reported for the following variant? `R23H`
Output: 4.7

Task: What value of protein stability index has been reported for the following variant? `T12F`
Output: 4.3

Task: What value of protein stability index has been reported for the following variant? `P7S`
Output: 4.89
